Listed below: IC50 of inhibition of CD4 T cell proliferation values for each entry.
Molecular target: T1, human monocarboxylate transporter 1 (MCT1) (human, UniProt P53985 1-500)
T1 sequence: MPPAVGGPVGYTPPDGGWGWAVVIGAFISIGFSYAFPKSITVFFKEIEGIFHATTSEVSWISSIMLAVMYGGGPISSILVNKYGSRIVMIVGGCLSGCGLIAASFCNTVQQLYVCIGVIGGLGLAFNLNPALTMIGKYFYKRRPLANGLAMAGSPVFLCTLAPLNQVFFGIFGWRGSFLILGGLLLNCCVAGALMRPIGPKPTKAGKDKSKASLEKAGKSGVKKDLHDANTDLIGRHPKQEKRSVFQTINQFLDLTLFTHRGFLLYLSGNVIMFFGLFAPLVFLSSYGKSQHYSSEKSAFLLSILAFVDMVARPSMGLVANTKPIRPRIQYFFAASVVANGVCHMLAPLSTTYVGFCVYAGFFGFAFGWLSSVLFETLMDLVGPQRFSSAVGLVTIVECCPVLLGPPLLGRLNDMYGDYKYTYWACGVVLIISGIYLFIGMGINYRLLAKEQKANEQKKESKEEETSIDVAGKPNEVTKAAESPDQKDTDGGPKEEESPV
Test: cell-based or functional assay
Value expressed in nM; do not type the unit.

binder	endpoint result
anti-human MCT1 antibody Ab18 (antibody, human IgG1, kappa, V domains shown, IgG1EN backbone) VH: QVQLVQSGAEVKKPGASVKVSCTVSGRSLTNYHLGWVRQAPGQGLEWMGFIRSSGNTEYNSEFKSRVTMTRDTSTSTVYMELSSLRSEDTAVYYCARNRWYHGTYYSPGYYVMDAWGQGTLVTVSS VL: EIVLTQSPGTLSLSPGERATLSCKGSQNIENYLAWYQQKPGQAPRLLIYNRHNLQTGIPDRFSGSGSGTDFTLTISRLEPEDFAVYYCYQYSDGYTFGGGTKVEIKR	6

Query :: If you can, please state the reported IC50 of inhibition of CD4 T cell proliferation value of anti-human MCT1 antibody Ab11 (antibody, human IgG1, kappa, V domains shown, IgG1EN backbone) VH: QVQLVQSGAEVKKPGASVKVSCTVSGRSLTNYHLQWVRQAPGQGLEWMGFIRSSGNTEYNSEFKSRVTMTRDTSTSTVYMELSSLRSEDTAVYYCARNRWHHGTYYSPGYYVMDAWGQGTLVTVSS VL: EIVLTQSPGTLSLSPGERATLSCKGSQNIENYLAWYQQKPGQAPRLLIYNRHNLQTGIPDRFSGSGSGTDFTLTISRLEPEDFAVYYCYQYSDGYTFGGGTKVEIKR .
Result :: 4

Query :: Lookup anti-human MCT1 antibody Ab13 (antibody, human IgG1, kappa, V domains shown, IgG1EN backbone) VH: QVQLVQSGAEVKKPGASVKVSCTVSGRSLTNYHLQWVRQAPGQGLEWMGFIRSSGNTEYNSEFKSRVTMTRDTSTSTVYMELSSLRSEDTAVYYCARNRWRHGTYYSPGYYVMDAWGQGTLVTVSS VL: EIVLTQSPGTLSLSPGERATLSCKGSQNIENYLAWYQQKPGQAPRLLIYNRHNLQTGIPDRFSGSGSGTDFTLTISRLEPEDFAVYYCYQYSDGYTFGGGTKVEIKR
Result :: 3

Source of measurements: patent US20230111363A1
